Tested on: H460 CisR cisplatin-resistant lung cancer cell line
protocolNotes: Cell viability in H460 CisR cells
Format: cell-based
conditionParameters: H460 CisR cells

{"compound": "N.N.[Cl][Pt][Cl] [Cisplatin, cisplatin]", "tgt": "H460 CisR cisplatin-resistant lung cancer cell line", "uom": "µM", "IC50": 3.4}

* * *

Test system: KB-3-1 cervical cancer cell line
protocolNotes: Cell viability in KB-3-1 cells
Type: cell-based

{"compound": "N.N.[Cl][Pt][Cl] [Cisplatin, cisplatin]", "IC50 (µM)": 1}

* * *

Test system: MRC-5 normal lung fibroblasts
protocolNotes: Cell viability in MRC-5 cells
Type: cell-based
parameter: IC50 (nM)

{"compound": "N.N.[Cl][Pt][Cl] [Cisplatin, cisplatin]", "parameter": "IC50", "uom": "nM", "dataValue": 430}

Values compiled from paper PMC8091166.
